test system: Rattus norvegicus; assay: % distribution of the radioiron in rat kidney followed by intravenous injection of chelating agent; format: ADME, organism-based; settings: in vivo
measurement_label: Distribution (%)

Task item: Form field: reported Distribution of "Cc1ncc(CO)c(/C=N/NC(N)=O)c1O"
Reply: 0.3

Task item: Form field: reported Distribution of CC(=O)N(O)CCCCCNC(=O)CCC(=O)N(O)CCCCCNC(=O)CCC(=O)N(O)CCCCCN [DEFEROXAMINE]
Reply: 0.3

Task item: Form field: reported Distribution of "Cc1csc(N/N=C/c2c(CO)cnc(C)c2O)n1"
Reply: 0.4

(P) Cc1ncc(CO)c(/C=N/NC(=O)c2ccncc2)c1O [PYRIDOXAL ISONICOTINOYL HYDRAZONE]
(Q) Cc1ncc(CO)c(/C=N/Nc2nc(-c3ccccc3)cs2)c1O
Task item: Thinking about recorded Distribution values, which is higher, P or Q ? Please reply using the label of the selected record.
Reply: Q
(Q: 0.5%, P: 0.3%)
